- Assay Remarks: in vitro
- Condition Set: human, MCF-7 breast cancer cells
Quantity Kind: IC50 at 24 h (nM)
Just the number in nM, nothing appended.

COC1C(O)CC(=O)OC(C)CC=CC=CC(OC2CCC(N(C)C)C(C)O2)C(C)CC(CC=O)C1OC1OC(C)C(OC2CC(C)(O)C(O)C(C)O2)C(N(C)C)C1O (stereo not shown) [SP, spiramycin] :: 670

Given CC[C@H]1OC(=O)[C@H](C)[C@@H](O[C@H]2C[C@@](C)(OC)[C@@H](O)[C@H](C)O2)[C@H](C)[C@@H](O[C@@H]2O[C@H](C)C[C@H](N(C)C)[C@H]2O)[C@](C)(OC)C[C@@H](C)C(=O)[C@H](C)[C@@H](O)[C@]1(C)O [CL, clarithromycin] , respond with its IC50 at 24 h.
1390

Given CC[C@H]1OC(=O)[C@H](C)[C@@H](O[C@H]2C[C@@](C)(OC)[C@@H](O)[C@H](C)O2)[C@H](C)[C@@H](O[C@@H]2O[C@H](C)C[C@H](N(C)C)[C@H]2O)[C@](C)(O)C[C@@H](C)/C(=N\OCOCCOC)[C@H](C)[C@@H](O)[C@]1(C)O [RO, roxithromycin] , respond with its IC50 at 24 h.
7900

Given COc1cccc2c1C(=O)c1c(O)c3c(c(O)c1C2=O)C[C@@](O)(C(=O)CO)C[C@@H]3O[C@H]1C[C@H](N)[C@H](O)[C@H](C)O1 [DOX, doxorubicin] , respond with its IC50 at 24 h.
490

----------
Measured IC50 at 24 h values are reported for all entries that follow.
- Assay Remarks: MTT antiproliferative assay, HepG-2
- Format: cell-based
- Condition Set: human, HepG-2 hepatocellular carcinoma cells, HepG-2, MTT, read-out: IC50 (cytotoxicity)
Just the number in µM, nothing appended.

Given COc1cccc2c1C(=O)c1c(O)c3c(c(O)c1C2=O)C[C@@](O)(C(=O)CO)C[C@@H]3O[C@H]1C[C@H](N)[C@H](O)[C@H](C)O1 [DOX, doxorubicin] , respond with its IC50 at 24 h.
3.6

Given CC[C@H]1OC(=O)[C@H](C)[C@@H](O[C@H]2C[C@@](C)(OC)[C@@H](O)[C@H](C)O2)[C@H](C)[C@@H](O[C@@H]2O[C@H](C)C[C@H](N(C)C)[C@H]2O)[C@](C)(O)C[C@@H](C)CN(C)[C@H](C)[C@@H](O)[C@]1(C)O [AZ, azithromycin] , respond with its IC50 at 24 h.
32

----------
Measured log10(IC50 at 24 h) values are reported for all entries that follow.
- Assay Remarks: MTT antiproliferative assay, HCT-116
- Type: cell-based
- Condition Set: human, HCT-116 colorectal carcinoma cells, HCT-116, MTT, read-out: IC50 (cytotoxicity)
All values: log10 IC50 at 24 h [nM].

COC1C(O)CC(=O)OC(C)CC=CC=CC(OC2CCC(N(C)C)C(C)O2)C(C)CC(CC=O)C1OC1OC(C)C(OC2CC(C)(O)C(O)C(C)O2)C(N(C)C)C1O (centres unmarked) [SP, spiramycin] :: 4.09
CC[C@H]1OC(=O)[C@H](C)[C@@H](O[C@H]2C[C@@](C)(OC)[C@@H](O)[C@H](C)O2)[C@H](C)[C@@H](O[C@@H]2O[C@H](C)C[C@H](N(C)C)[C@H]2O)[C@](C)(O)C[C@@H](C)/C(=N\OCOCCOC)[C@H](C)[C@@H](O)[C@]1(C)O [RO, roxithromycin] :: 1.99
COc1cccc2c1C(=O)c1c(O)c3c(c(O)c1C2=O)C[C@@](O)(C(=O)CO)C[C@@H]3O[C@H]1C[C@H](N)[C@H](O)[C@H](C)O1 [DOX, doxorubicin] :: 3.20
CC[C@H]1OC(=O)[C@H](C)[C@@H](O[C@H]2C[C@@](C)(OC)[C@@H](O)[C@H](C)O2)[C@H](C)[C@@H](O[C@@H]2O[C@H](C)C[C@H](N(C)C)[C@H]2O)[C@](C)(O)C[C@@H](C)CN(C)[C@H](C)[C@@H](O)[C@]1(C)O [AZ, azithromycin] :: 3.32

Given CC[C@H]1OC(=O)[C@H](C)[C@@H](O[C@H]2C[C@@](C)(OC)[C@@H](O)[C@H](C)O2)[C@H](C)[C@@H](O[C@@H]2O[C@H](C)C[C@H](N(C)C)[C@H]2O)[C@](C)(OC)C[C@@H](C)C(=O)[C@H](C)[C@@H](O)[C@]1(C)O [CL, clarithromycin] , respond with its log10(IC50 at 24 h).
3.44

----------
- Assay Remarks: MTT antiproliferative assay, HepG-2
- Format: cell-based
- Condition Set: human, HepG-2 hepatocellular carcinoma cells, HepG-2, MTT, read-out: IC50 (cytotoxicity)
Quantity Kind: IC50 at 24 h (µM)
Just the number in µM, nothing appended.

Below, each entry is followed by its recorded IC50 at 24 h result.
CC[C@H]1OC(=O)[C@H](C)[C@@H](O[C@H]2C[C@@](C)(OC)[C@@H](O)[C@H](C)O2)[C@H](C)[C@@H](O[C@@H]2O[C@H](C)C[C@H](N(C)C)[C@H]2O)[C@](C)(OC)C[C@@H](C)C(=O)[C@H](C)[C@@H](O)[C@]1(C)O :: 14.8
CC[C@H]1OC(=O)[C@H](C)[C@@H](O[C@H]2C[C@@](C)(OC)[C@@H](O)[C@H](C)O2)[C@H](C)[C@@H](O[C@@H]2O[C@H](C)C[C@H](N(C)C)[C@H]2O)[C@](C)(O)C[C@@H](C)/C(=N\OCOCCOC)[C@H](C)[C@@H](O)[C@]1(C)O :: 32

Now for a further molecule.
Given COC1C(O)CC(=O)OC(C)CC=CC=CC(OC2CCC(N(C)C)C(C)O2)C(C)CC(CC=O)C1OC1OC(C)C(OC2CC(C)(O)C(O)C(C)O2)C(N(C)C)C1O (stereo not drawn) , respond with its IC50 at 24 h.
20.9
